meta.source: paper PMC4188605

# assay system: hABHD6 (Homo sapiens, UniProt Q9BV23)
# Construct: expressed in transfected cells; host or cells: HEK293
# Sequence (Q9BV23 whole entry): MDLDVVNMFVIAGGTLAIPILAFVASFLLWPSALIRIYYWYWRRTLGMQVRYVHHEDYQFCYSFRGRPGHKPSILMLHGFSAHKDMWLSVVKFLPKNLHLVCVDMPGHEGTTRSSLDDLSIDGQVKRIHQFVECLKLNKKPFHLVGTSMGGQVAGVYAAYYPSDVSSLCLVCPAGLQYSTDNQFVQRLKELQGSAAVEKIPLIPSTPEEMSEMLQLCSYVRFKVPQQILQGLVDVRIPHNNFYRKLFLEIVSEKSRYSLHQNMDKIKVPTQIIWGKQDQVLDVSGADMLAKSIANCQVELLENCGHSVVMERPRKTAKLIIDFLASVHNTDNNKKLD
# test: Hydrolase activity assay, hABHD6-HEK lysates
# Type: biochemical
# condition: IC50, hABHD6-HEK lysates
measurement name: IC50 (nM)

molecule: CCC(C)C(O)C(C)C(=O)C(C)C=C(C)CC(C)C1OC(=O)C1C (stereo not shown)
measurement name: IC50
value units: nM
reported: 870

###

# assay system: hBAT5 (Homo sapiens)
# test: Inhibition of 1-LG hydrolysis in hBAT5-HEK293 lysates (fluorescent glycerol assay)
# Format: biochemical
# Parameters: host or cells: HEK293
# condition: 1-LG hydrolysis

compound: CC(=C\C(=O)O)/C=C(\C)C[C@H](C)CCCC[C@H]1OC(=O)[C@@H]1CO [Hymeglusin, hymeglusin]
hBAT5 inhibitory activity (in words): inactive
//
compound: COc1nn(-c2ccccc2C)c(=O)o1 [compound 48]
hBAT5 inhibitory activity (in words): inactive

###

Below, each entry is listed with its recorded pIC50.
# assay system: hBAT5 (Homo sapiens)
# test: Inhibition of 1-LG hydrolysis in hBAT5-HEK293 lysates (fluorescent glycerol assay)
# Format: biochemical
# Set-up: host or cells: HEK293
# condition: 1-LG 25 µM; 30 min inhibitor pretreatment; monitored 90 min; mean, n=3; read-out: IC50
pIC50: −log10 of the molar value.

molecule: COc1nn(-c2cccc([N+](=O)[O-])c2)c(=O)o1 [compound 40]
pIC50: 7.20
--
molecule: COc1nn(-c2ccc(Br)cc2)c(=O)o1 [compound 45]
pIC50: 6.96
--
molecule: COc1nn(-c2ccc(I)cc2)c(=O)o1 [compound 46]
pIC50: 6.45
--
molecule: CCCCCCCCCCC[C@@H](C[C@@H]1OC(=O)[C@H]1CCCCCC)OC(=O)[C@H](CC(C)C)NC=O [THL, tetrahydrolipstatin]
pIC50: 6.77
--
molecule: CCOc1nn(-c2cccc([N+](=O)[O-])c2)c(=O)o1 [compound 51]
pIC50: 6.90

###

# assay system: hBAT5 (Homo sapiens)
# test: Inhibition of 1-LG hydrolysis in hBAT5-HEK293 lysates (fluorescent glycerol assay)
# Assay type: biochemical
# Parameters: host or cells: HEK293
# condition: 1-LG 25 µM; 30 min inhibitor pretreatment; monitored 90 min; mean, n=3; read-out: IC50
Label condition met when IC50 is strictly below 100 nM; at or above that, label condition not met.

compound: O=c1oc(Oc2ccccc2)nn1-c1cccc([N+](=O)[O-])c1 [compound 52]
assay system: hBAT5 (Homo sapiens)
group: condition not met

compound: COc1nn(-c2ccc([N+](=O)[O-])cc2)c(=O)o1 [compound 41]
assay system: hBAT5 (Homo sapiens)
group: condition not met

compound: COc1nn(-c2cccc(C#N)c2)c(=O)o1 [compound 47]
assay system: hBAT5 (Homo sapiens)
group: condition met

compound: COc1ccc(Oc2nn(-c3cccc([N+](=O)[O-])c3)c(=O)o2)cc1 [compound 54]
assay system: hBAT5 (Homo sapiens)
group: condition not met

compound: COc1nn(-c2ccccc2F)c(=O)o1 [compound 42]
assay system: hBAT5 (Homo sapiens)
group: condition met

###

# assay system: hBAT5 (Homo sapiens)
# test: hBAT5 substrate hydrolysis and Michaelis-Menten kinetics (glycerol assay, hBAT5-HEK293 lysates)
# condition: 25 µM substrate; with 0.5% BSA; 60 min
measurement name: hydrolysis by hBAT5 (substrate utilization, in words)

compound: CCCCC[C@H](O)/C=C/[C@@H]1[C@@H](C/C=C\CCCC(=O)OCC(O)CO)[C@@H](O)C[C@H]1O (stereo partly drawn) [PG-F2α-G, prostaglandin F2α-1-glycerol ester]
reported: low

compound: CCCCC[C@H](O)/C=C/[C@H]1[C@H](O)CC(=O)[C@@H]1C/C=C\CCCC(=O)OCC(O)CO (some centres unmarked) [PGE2-G, prostaglandin E2-1-glycerol ester]
reported: low

###

# assay system: hBAT5 (Homo sapiens, UniProt O95870)
# Sequence (O95870 1-558): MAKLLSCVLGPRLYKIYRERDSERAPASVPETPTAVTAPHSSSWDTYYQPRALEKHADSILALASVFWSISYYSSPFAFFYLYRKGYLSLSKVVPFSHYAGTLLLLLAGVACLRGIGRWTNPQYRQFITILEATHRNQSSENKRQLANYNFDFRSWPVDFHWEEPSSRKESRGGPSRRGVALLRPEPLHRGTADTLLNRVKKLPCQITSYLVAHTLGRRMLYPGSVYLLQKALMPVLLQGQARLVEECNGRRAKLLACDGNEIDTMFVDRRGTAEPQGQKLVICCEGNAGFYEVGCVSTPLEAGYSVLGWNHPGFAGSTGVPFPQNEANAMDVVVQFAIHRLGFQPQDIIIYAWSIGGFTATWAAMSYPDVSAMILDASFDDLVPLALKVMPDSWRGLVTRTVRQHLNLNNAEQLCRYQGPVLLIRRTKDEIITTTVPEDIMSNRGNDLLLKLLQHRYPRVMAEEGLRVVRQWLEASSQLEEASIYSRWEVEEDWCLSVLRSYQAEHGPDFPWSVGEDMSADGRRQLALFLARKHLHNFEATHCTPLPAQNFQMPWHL
# test: Inhibition of 1-LG hydrolysis in hBAT5-HEK293 lysates (fluorescent glycerol assay)
# Format: biochemical
# Design: host or cells: HEK293
# condition: at 10^-5 M; 1-LG 25 µM

compound: COc1nn(Cc2cccc(Oc3ccccc3)c2)c(=O)o1
assay system: hBAT5 (Homo sapiens, UniProt O95870)
remaining activity at 10 µM, %: 102

compound: O=c1oc(Oc2ccc([N+](=O)[O-])cc2)nn1-c1cccc([N+](=O)[O-])c1
assay system: hBAT5 (Homo sapiens, UniProt O95870)
remaining activity at 10 µM, %: 50.5

compound: COc1nn(Cc2cccc([N+](=O)[O-])c2)c(=O)o1
assay system: hBAT5 (Homo sapiens, UniProt O95870)
remaining activity at 10 µM, %: 99.3

compound: CC(=C\C(=O)O)/C=C(\C)C[C@H](C)CCCC[C@H]1OC(=O)[C@@H]1CO
assay system: hBAT5 (Homo sapiens, UniProt O95870)
remaining activity at 10 µM, %: 103

###

# assay system: hMAGL (Homo sapiens, UniProt Q99685)
# Sequence (Q99685 whole entry): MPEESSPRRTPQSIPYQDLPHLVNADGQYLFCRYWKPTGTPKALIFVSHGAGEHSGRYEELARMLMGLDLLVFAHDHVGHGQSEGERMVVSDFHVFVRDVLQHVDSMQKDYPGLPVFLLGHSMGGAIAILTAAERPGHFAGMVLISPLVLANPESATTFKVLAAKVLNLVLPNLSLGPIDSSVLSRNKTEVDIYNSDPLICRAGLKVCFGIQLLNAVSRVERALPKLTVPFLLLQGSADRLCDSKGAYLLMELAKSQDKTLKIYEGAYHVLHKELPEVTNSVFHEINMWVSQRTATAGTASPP
# test: Hydrolase activity assay, hMAGL-HEK lysates
# condition: hMAGL-HEK lysates
pIC50: −log10 of the molar value.

compound: CCCCCCCCCC[C@@H]1C(=O)O[C@H]1CCc1ccc(OC)c(OC)c1
pIC50: 7.03

###

# assay system: hBAT5 (Homo sapiens)
# test: Inhibition of 1-LG hydrolysis in hBAT5-HEK293 lysates (fluorescent glycerol assay)
# Type: biochemical
# Design: host or cells: HEK293
# condition: 5-position substituent, relative to 40
Below, each entry is listed with its recorded fold decrease in activity when methyl (40) is replaced.
measurement name: fold decrease in activity when methyl (40) is replaced (fold)

compound: COc1ccc(Oc2nn(-c3cccc([N+](=O)[O-])c3)c(=O)o2)cc1
value units: fold
reported: 10
--
compound: O=c1oc(OCc2ccccc2)nn1-c1cccc([N+](=O)[O-])c1
value units: fold
reported: 24
